# reported GI50; entries follow
Tested on: NCI-H23
Test: NCI tumour cell line growth inhibition, 48 h
The source made the active and inactive calls. Cut-off read from the data, not from the text of the source: active = GI50 up to about 1.1 µM and inactive = higher.

Observe how each entry below is paired with its result.
>>> readout_value("CN(Cc1cnc2nc(N)nc(N)c2n1)c1ccc(C(=O)NCCCC(=O)O)cc1")
"37.3 µM (inactive)"
>>> readout_value("NNC(=O)C(O)C(O)C(O)CO (stereo not given)")
"> 100 µM (inactive)"
>>> readout_value("Oc1ccccc1-c1nn2c(CCCCCCCCc3nnc4sc(-c5ccccc5O)nn34)nnc2s1")
"18.8 µM (inactive)"
>>> readout_value("CN(C)CCCSc1nc2ccccc2[nH]1")
"> 100 µM (inactive)"
>>> readout_value("N#Cc1c2c(c(Nc3cccc(C(F)(F)F)c3)n3c1nc1ccccc13)CCC2")
"> 100 µM (inactive)"
>>> readout_value("C(=C\\c1cc(-c2ccc3ccccc3n2)nc2ccc3ccccc3c12)/c1ccc2ccccc2n1")
"> 10 µM (inactive)"

Now for the compound whose GI50 we want.
What the record says about COC(=O)c1c(C)cccc1C1CN=NC12Cc1ccccc1C2=O (stereo not given) : GI50 is 60.4 µM (inactive)

----------
Tested on: SNB-19
Assay: NCI tumour cell line growth inhibition, 48 h
The source made the active and inactive calls. No stated cut-off is given here; in the data, active = GI50 up to about 1.1 µM and inactive = higher.
Outcome (select one): active, inactive

Worked examples follow.
>>> group_label("CCCCOC(=O)C(NC(C(=O)OCCCC)c1cc(C(C)(C)C)c(O)c(C(C)(C)C)c1)c1cc(C(C)(C)C)c(O)c(C(C)(C)C)c1 (stereo not given)")
"inactive"
>>> group_label("O=C(Nc1ccccc1C(=O)NC(=O)c1ccccc1NC(=O)c1ccccc1)c1ccccc1")
"inactive"
>>> group_label("C=CCOC(=O)CCCCCCCCCCCCCCCOC(=O)c1c(CCC[C@@H](C)O[Si](C)(C)C(C)(C)C)nc([O-])[n+]2c1CC[C@H]2CC1(CC/C=C\\[C@H](CC)O[Si](C(C)C)(C(C)C)C(C)C)OCCO1")
"inactive"
>>> group_label("Cc1ccc(S(=O)(=O)c2c3nc4ccccc4nc3n3c2[nH]c2ccccc23)cc1")
"inactive"
>>> group_label("CCC1(CC)C(=O)N(C(=O)c2cc(OC)c(OC)c(OC)c2)N(C(=O)c2cc(OC)c(OC)c(OC)c2)C1=O")
"inactive"
>>> group_label("CN(C)CCCNC(=O)c1cc2/c(=C\\c3ccc(N(C)C)cc3)c3ccccc3n2[n+]1C")
"inactive"
>>> group_label("Cc1cccc(C)c1NC(=O)C(=O)Nn1c(NN)nc2ccccc2c1=O")
"inactive"
>>> group_label("COc1ccc2c3c1C(=O)CCC3CO2 (stereo not given)")
"inactive"
>>> group_label("CCOn1c(C2(CC3CCN(C(=O)c4ccccc4)CC3)OCCO2)cc2ccccc21")
"inactive"
>>> group_label("CC1=C(C(=O)NCc2ccccc2)C(/C=C/c2ccccc2)C(C(=O)NCc2ccccc2)=C(C)N1")
"inactive"

Hi, do you know how COc1ccc(Nc2nn3c(=O)c4c(C)c(C)sc4nc3s2)cc1 came out in this test?
inactive

Hi, do you know how CC(C)(C)CC(C)(C)c1cc2c(O)c(c1)Cc1cc(C(C)(C)CC(C)(C)C)cc(c1O)Cc1cc(C(C)(C)CC(C)(C)C)cc(c1O)Cc1cc(C(C)(C)CC(C)(C)C)cc(c1O)Cc1cc(C(C)(C)CC(C)(C)C)cc(c1O)Cc1cc(C(C)(C)CC(C)(C)C)cc(c1O)Cc1cc(C(C)(C)CC(C)(C)C)cc(c1O)Cc1cc(C(C)(C)CC(C)(C)C)cc(c1O)C2 came out in this test?
inactive

Hi, do you know how CC(=O)NC1C(OC(C)C(=O)NC(C(=O)NC(CCC(=O)NCCCNC2c3ccccc3Nc3cccc([N+](=O)[O-])c32)C(N)=O)C(C)C)C(O)C(CO)OC1(C)OCc1ccccc1 (stereo not given) came out in this test?
inactive

Hi, do you know how CCOC(=O)c1nc2ccccc2nc1Oc1cc(OC)c(OC)c(OC)c1 came out in this test?
inactive

Hi, do you know how CN(C)N1C(=O)c2ccccc2NC1c1ccccc1 (stereo not given) came out in this test?
inactive

Hi, do you know how Cc1ccc(-c2nnc(-c3nn(-c4ccccc4)c4nc5ccccc5nc34)o2)cc1 came out in this test?
inactive

Hi, do you know how Clc1ccc(Cc2nc3cc4ccccc4cc3[nH]2)cc1Cl came out in this test?
inactive

Hi, do you know how O=C(O)CSCc1cc2c(O)c(c1)Cc1cc(CSCC(=O)O)cc(c1O)Cc1cc(CSCC(=O)O)cc(c1O)Cc1cc(CSCC(=O)O)cc(c1O)C2 came out in this test?
inactive

----------
# reported GI50; entries follow
System: SK-MEL-5
Test: NCI tumour cell line growth inhibition, 48 h
Activity calls are given as the source filed them. No stated cut-off is given here; in the data, active = GI50 up to about 1.1 µM and inactive = higher.

Observe how each entry below is paired with its result.
>>> readout_value("O=C(Nc1ccc(Cl)cc1)c1cc(S(=O)(=O)Nc2n[nH]c(Nc3ccc4ccccc4c3)n2)c(SSc2cc(Cl)c(C(=O)Nc3ccc(Cl)cc3)cc2S(=O)(=O)Nc2n[nH]c(Nc3ccc4ccccc4c3)n2)cc1Cl")
"21.3 µM (inactive)"
>>> readout_value("CCOC(=O)c1nc2ccccc2nc1Oc1cc(OC)c(OC)c(OC)c1")
"> 100 µM (inactive)"
>>> readout_value("CCOC(=O)C[C@@H]1C2(C=C[C@@]13CO3)OCC(C)(C)CO2")
"> 100 µM (inactive)"
>>> readout_value("CC(=O)c1cc2c(s1)C(=O)c1sccc1C2=O")
"< 0.0113 µM (active)"
>>> readout_value("CCNC(=S)Nc1c(C#N)c2n(c1C(=O)OCC)CCCCC2")
"> 100 µM (inactive)"
>>> readout_value("Cc1ccc(-c2nnc(-c3nn(-c4ccccc4)c4nc5ccccc5nc34)o2)cc1")
"10.9 µM (inactive)"
>>> readout_value("CCc1ccc2c(c1)/C(=C1/Nc3ccccc3C1=O)C(=O)N2")
"9.62 µM (inactive)"
>>> readout_value("CC1(C)Cc2c(sc3[nH]c(=S)[nH]c(=S)c23)CS1")
"29.6 µM (inactive)"

Now for the compound whose GI50 we want.
Item CCN(CC)C1Oc2cc3c(cc2C(c2cccc(OC)c2OC)C1C)OCO3 (centres undefined) was tested on SK-MEL-5; the reported GI50 is 6.84 µM (inactive)

----------
Test system: Malme-3M
Assay: NCI tumour cell line growth inhibition, 48 h
The source made the active and inactive calls. No stated cut-off is given here; in the data, active = GI50 up to about 1.1 µM and inactive = higher.
# reported GI50; entries follow

>>> readout_value("CSc1nc(=S)[nH]c2c1c(C)nn2-c1ccccc1")
"17.1 µM (inactive)"

What the record says about COc1ccc2nc3cc([N+](=O)[O-])ccc3c(NNc3ccc([N+](=O)[O-])cc3)c2c1 : GI50 is 30.1 µM (inactive)

What the record says about O=C1N(c2ccccc2)C2(c3ccccc3)CC3CCCC13S2 (stereo not given) : GI50 is 40.9 µM (inactive)

What the record says about COc1ccc(C(OC(=O)[C@H](O[Si](C)(C)C(C)(C)C)[C@@H](NC(=O)c2ccccc2)c2ccccc2)c2ccc(OC)cc2)cc1 : GI50 is > 100 µM (inactive)

What the record says about O=C1Cc2c([nH]c3ccccc23)-c2ccccc2N1 : GI50 is 61.1 µM (inactive)

----------
Tested on: DMS-114
Test: NCI tumour cell line growth inhibition, 48 h
Calls of active or inactive are those of the source. Cut-off read from the data, not from the text of the source: active = GI50 up to about 1.1 µM and inactive = higher.
# reported GI50; entries follow

Observe how each entry below is paired with its result.
>>> readout_value("COC12OCCN(C)C1=CC(=O)C1(C)N=NCC12 (stereo not given)")
"> 100 µM (inactive)"
>>> readout_value("Nc1ccc(C(=O)N/C(=C\\c2cccc([N+](=O)[O-])c2)c2nc3c4c(ccc3[nH]2)C(=O)c2ccccc2C4=O)cc1")
"8.18 µM (inactive)"
>>> readout_value("CC(C)(C)C1CCC2c3c([nH]c4ccccc34)C3C(=O)N(c4ccc(Br)cc4)C(=O)C3C2C1 (stereo not given)")
"19 µM (inactive)"
>>> readout_value("COc1cc(/C=C2\\NC(=O)C(Cc3cc(OC)c(OC)c(C)c3OC)N(C(C)=O)C2=O)c(OC)c(C)c1OC (stereo not given)")
"60.5 µM (inactive)"

Now for the molecule whose GI50 we want.
Item O=NN(CCCl)C(=O)N[C@H]1CC[C@@H](C(=O)O)CC1 was tested on DMS-114; the reported GI50 is 52.7 µM (inactive)

----------
Tested on: MDA-MB-231
Assay: NCI tumour cell line growth inhibition, 48 h
The source made the active and inactive calls. Rule as the data show it: active = GI50 up to about 1.1 µM and inactive = higher.
Outcome (select one): active, inactive

Worked examples follow.
>>> group_label("CC1(C)c2ccccc2C(=O)C12CCC(=O)CC2")
"inactive"
>>> group_label("O=C1C(c2c(O)[nH]c3ccc(S(=O)(=O)O)cc23)=Nc2ccccc21")
"inactive"
>>> group_label("CCOC(=O)c1c(-c2ccccc2)c(C)cn1C")
"active"
>>> group_label("CC1(C)O[C@@H](CO)[C@H]([C@@]23OC[C@H]4OC(C)(C)OC4[C@@H]2OC(C)(C)O3)O1 (some centres undefined)")
"inactive"
>>> group_label("O=C1c2c(Br)sc(Br)c2[C@@H](NC(=O)C(F)(F)F)C1Br (some centres undefined)")
"inactive"
>>> group_label("CC(=O)OC(C(=O)O)C(OC(C)=O)C(OC(C)=O)C(OC(C)=O)C(=O)O (centres undefined)")
"inactive"

Hi, do you know how COc1ccc(-c2cc(=O)c3c(OC)c(OC)c(OC)cc3o2)cc1 came out in this test?
inactive

Hi, do you know how Cc1cccc(/C=N/NC(=S)Nc2ccc(Cl)cc2)n1 came out in this test?
active

Hi, do you know how CSc1nc(=S)[nH]c2c1c(C)nn2-c1ccccc1 came out in this test?
inactive

Hi, do you know how CC(C)(C)NCC(O)COc1cccc2[nH]c(C#N)cc12 (centres undefined) came out in this test?
inactive

Hi, do you know how Nc1nc(N)c2ncn(-c3ccc(Cl)c(Cl)c3)c2n1 came out in this test?
inactive

Hi, do you know how O=C1OC(c2ccccc2)=N/C1=C\c1ccc(Cl)cc1 came out in this test?
inactive

Hi, do you know how CN1CCN([C@H]2C[C@H]3[C@@H]4CC=C5C[C@@H](N6CCCC6)CC[C@]5(C)[C@H]4CC[C@]3(C)[C@H]2O)CC1 came out in this test?
inactive

Hi, do you know how O=[N+]([O-])/C(Cl)=C/C(=C1/Nc2ccccc2O1)[N+](=O)[O-] came out in this test?
inactive

Hi, do you know how Clc1ccc(OCc2nnc(CCCCCCCCc3nnc(COc4ccc(Cl)cc4Cl)n3Nc3ccccc3)n2Nc2ccccc2)c(Cl)c1 came out in this test?
inactive

Hi, do you know how COc1cc(OC)cc(-n2c(N)c(-c3nc4ccccc4s3)c3ccc([N+](=O)[O-])cc3c2=O)c1 came out in this test?
inactive

Hi, do you know how COc1ccc(C(c2ccc3c(c2)OCO3)N2C(=O)CCC2C(=O)O)cc1 (centres undefined) came out in this test?
inactive

Hi, do you know how CC(=O)O[C@H]1C[C@]2(O)[C@@H]3CC[C@@H]4C[C@@H](O)CC[C@]4(C)[C@H]3CC[C@]2(C)[C@H]1C1=CC(=O)OC1 came out in this test?
active

Hi, do you know how CCOC(=O)c1c(N2CCCC2)[nH]c(=O)c(C(c2ccc(Cl)c([N+](=O)[O-])c2)c2c(O)c(C(=O)OCC)c(N3CCCC3)[nH]c2=O)c1O came out in this test?
inactive
